Where do these numbers come from? They come from patent US20240246920A1.

log10 MIC for assorted compounds
System: Candida auris TDG2512
assay-notes: Candida panel MIC, serial dilution in 96-well plates
Format: cell-based
conditions-used: Candidozyma auris, TDG2512; Table 4, extended panel; 24 hours, ≥50% inhibition; read-out: MIC Candida auris TDG2512
Values below are the log10 of the recorded MIC, with µg/mL as the unit.

Worked set:
OC(CN1CCC(Nc2ccc(OCc3ccccc3)cc2)CC1)(Cn1cncn1)c1ccc(F)cc1F (stereo not drawn) [Example 90] = -2.41
OC(CN1CCC2(CCN(c3ccc(OCCN4CCOCC4)cc3)CC2)C1)(Cn1cncn1)c1ccc(F)cc1F (stereo not drawn) [Example 88] = -1.20
OC(CN1CCCC(Nc2ccc(Cc3ccccc3)cc2)CC1)(Cn1cncn1)c1ccc(F)cc1F (stereo not drawn) [Example 9] = -0.90
OC(CN1CCC(N2CCC(Nc3ccc(OCCN4CCOCC4)cc3)CC2)CC1)(Cn1cncn1)c1ccc(F)cc1F (stereo not drawn) [Example 92] = 0.60
Cc1ccc(-c2ccc(NC3C[C@@H]4CN(CC(O)(Cn5cncn5)c5ccc(F)cc5F)C[C@@H]4C3)cc2)cc1F (stereo partly drawn) [Example 99] = -0.30

Field log10 MIC (entry OC(CN1CCCN(c2ncc(F)cn2)CC1)(Cn1cncn1)c1ccc(F)cc1F (stereo not drawn) [Example 8] ) reads 0.30

Field log10 MIC (entry OC(CN1CCC(N2CCC(Nc3ncc(F)cn3)CC2)CC1)(Cn1cncn1)c1ccc(F)cc1F (stereo not drawn) [Example 10] ) reads -0.30

Field log10 MIC (entry OC(CN1CCC2(CCN(c3ncc(F)cn3)CC2)C1)(Cn1cncn1)c1ccc(F)cc1F (stereo not drawn) [Example 7] ) reads -1.52
